Each entry below carries its recorded normalized growth.
Assay: chemical genetic growth profiling, strain panel (AID 1159580);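 further: tested at 20 µM; growth read once vehicle control cultures reached saturation at 30 °C; 1 = growth at the plate median or of vehicle wells; lower values mean less growth of the strain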
Settings: S. cerevisiae deletion strains, growth OD, locus YMR231W, strain pep5, active compounds read low
Out of some 5,500 compounds screened, about 2,000 (36%) were called active. About 18% were inconclusive and are not listed. This is one part of the list.
Format: numeric value only, no unit, no commentary.

Here is how some compounds turned out for normalized growth.
COc1c(O)cc2c(c1O)[C@H]1O[C@H](CO)[C@@H](O)[C@H](O)[C@@H]1OC2=O
1.02
O=c1c2cc(O)c(O)cc2oc2cc(O)c(C3O[C@H](CO)[C@H](O)[C@@H](O)[C@H]3O)c(O)c12 (some centres undefined)
1.02
O=c1c(-c2ccc(O)cc2)coc2c(C3O[C@H](CO)[C@@H](O)[C@H](O)[C@H]3O)c(O)ccc12 (some centres undefined)
0.985
COc1cc(-c2cc(=O)c3c(O)c(OC)c(OC)c(OC)c3o2)cc(OC)c1OC
1.01
COc1ccc(-c2cc(=O)c3c(O)c(OC)c(O[C@H]4O[C@H](CO[C@@H]5O[C@@H](C)[C@H](O)[C@@H](O)[C@H]5O)[C@@H](O)[C@H](O)[C@H]4O)cc3o2)cc1
0.96
COP(N)(=O)SC (centres undefined)
1.01
COc1ccc(-c2cc(=O)c3c(O)c(OC)c(OC)c(OC)c3o2)cc1OC
1
NC(=O)c1cc([N+](=O)[O-])cc([N+](=O)[O-])c1
1.01

Attention now shifts to the item below.
Exercise: Which value of normalized growth has been reported for CC1=CC(=O)C2C(C)(C)CCC[C@]2(C)[C@@]1(O)CCc1ccoc1 (some centres undefined) in the records?
Solution: 0.998
